screen value for assorted variants
B1: NOTCH4 peptide 1604-1619 (Neurogenic locus notch homolog protein 4), 16-mer library wild type / NSP9 (ORF1ab Nsp9, residues 4141-4253) (parent)
chain 1: TFQGAWLGAPEPWEPL
chain 2: NNELSPVALRQMSCAAGTTQTACTDDNALAYYNTTKGGRFVLALLSDLQDLKWARFPKSDGTGTIYTELEPPCRFVTDTPKGPKVKYLYFIKGLNNLNRGMVLGSLAATVRLQ

variants of: B1; details: with NSP9 (ORF1ab Nsp9, residues 4141-4253); bait immobilised on MaxiSorp plates (10 µg), library pre-cleared on GST, 2 h binding at 4 °C, five washes; one round per day, days 1-4; value from days 2 and 3; keep out of graded; scale: average fractional NGS count over selection days 2 and 3
readout_kind: screen value

INSERT INTO measurements (variant_identifier, recorded_value) VALUES
  ('chain 1 E14V', 0.000155),
  ('chain 1 F2L', 0),
  ('chain 1 P10E', '4.5e-05'),
  ('chain 1 L7D', 0),
  ('chain 1 W6I', 0),
  ('chain 1 E11N', 0),
  ('chain 1 P12W', 0),
  ('chain 1 A5G', 0),
  ('chain 1 Q3L', 0),
  ('chain 1 L16V', 0),
  ('chain 1 E11D', 0);

The origin of these recorded values is paper PMC12102759.
